These entries and their values trace back to the RepoRT retention time repository (doi:10.1016/j.foodchem.2021.129757).

- METHOD DESCRIPTION: RP, Waters ACQUITY UPLC BEH Shield RP18, 100 × 2.1 mm, 1.7 µm, 30 °C, 0.6 mL/min, estimated dead time 0.37 min; A: water + 0.1% formic acid, pH 3; B: acetonitrile + 0.1% formic acid, pH 3; gradient (min/%B) 0/0 2/0 7/10 22/95 22.1/0 26/0
- SETUP CONDITIONS: stereoisomer not certain
OBSERVATION TYPE: LC retention time (min)

The examples below pair each entry with its known result.
INSERT INTO assay_data (compound, test_result) VALUES
  ('COc1cc(CC2COC(c3ccc(O)c(OC)c3)C2CO)ccc1O (single isomer, unassigned; (+)) [(+)-Lariciresinol]', 13.5),
  ('COc1c(O)cc(C(=O)O)cc1OS(=O)(=O)O [4-O-methylgallic acid 3-O-sulfate]', 10.4),
  ('Cn1cnc2c1c(=O)[nH]c(=O)n2C [Theobromine]', 4.4),
  ('O=C(C=Cc1ccc(O)c(O)c1)OC(Cc1ccc(O)c(O)c1)C(=O)O (stereo not drawn) [Rosmarinic acid]', 13.7);

I = COc1ccc(-c2cc(=O)c3c(OC)c(OC)c(OC)c(OC)c3o2)cc1 [Tangeretin]
II = O=C(O)c1ccc(O)c(O)c1 [Protocatechuic acid]
III = COc1cc(C(=O)O)ccc1O [Vanillic acid]
Prompt: Sort low-to-high on LC retention time, please. Give me the labels in the order the question wants.
Response: II, III, I
(II: 5.2 min, III: 9.67 min, I: 16.9 min)
